Below is a list of entries, each paired with its recorded protection from staurosporine, viability EC50, MLP29 value.
molecular target: native mouse MET on living mouse cells (mouse, UniProt P16056 25-1379); assay: cell-based or functional assay
RESULT_TYPE: protection from staurosporine, viability EC50, MLP29 (nM)

binder="chimeric llama-human IgG1 mAb 76H10 (antibody, V domains shown) VH: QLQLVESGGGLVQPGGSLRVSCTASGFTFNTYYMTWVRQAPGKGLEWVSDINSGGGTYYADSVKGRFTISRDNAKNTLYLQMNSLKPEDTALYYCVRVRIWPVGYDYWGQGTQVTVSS VL: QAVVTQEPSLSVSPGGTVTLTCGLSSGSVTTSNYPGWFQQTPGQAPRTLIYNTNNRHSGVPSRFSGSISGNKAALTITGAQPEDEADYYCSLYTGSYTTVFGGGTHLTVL" result_qualifier=> measured=32
binder="chimeric llama-human IgG1 mAb 76G7 (antibody, V domains shown) VH: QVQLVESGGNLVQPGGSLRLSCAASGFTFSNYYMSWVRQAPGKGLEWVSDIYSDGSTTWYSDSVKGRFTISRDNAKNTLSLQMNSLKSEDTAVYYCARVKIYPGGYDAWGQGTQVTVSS VL: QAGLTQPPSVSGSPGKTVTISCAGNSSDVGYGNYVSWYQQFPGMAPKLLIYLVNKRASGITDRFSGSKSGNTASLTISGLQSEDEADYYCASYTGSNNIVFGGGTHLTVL" result_qualifier== measured=30.1
